Source listed as PubChem BioAssay (Tox21).

# testTarget: Estrogen receptor (Homo sapiens)
# protocolSummary: qHTS assay to identify small molecule agonists of the estrogen receptor alpha (ER-alpha) signaling pathway using the BG1 cell line (AID 743079); also: nearly all actives have a fitted effect of over 20% in size; also: potency is read from the fitted curve at half-maximal effect; as to activation: % is scaled to controls: 0 for no effect and ±100 for the full control effect
# experimentalConditions: BG1Luc4E2 cells, ERE-luciferase agonist, 22 h
Results filed as inconclusive are left out. Active and inactive are the calls of the source. Calls follow the shape of the dose curve; as a rule, active = well fitted activation curve with a large enough effect in the repeat runs; inconclusive = weak or mixed curves, or effect the other way; inactive = no such curve, though single readings can be large or run the other way.
readoutType: Potency

Worked cases, answers included:
{"columns": ["compound", "Potency"],
 "data": [
  ["COc1cc(Br)c(C[N+]2(CCOCCC3CCC4CC3C4(C)C)CCOCC2)cc1OC (configuration not stated)", "inactive"],
  ["N[C@H](CCC(=O)O)C(=O)O", "inactive"],
  ["CN(CC(=O)N1CCOCC1)Cc1c(Cl)cccc1NC(=O)c1ccccc1", "inactive"],
  ["CCOC(=O)COc1ccc2c(C)c(CCN(CC)CC)c(=O)oc2c1", "inactive"],
  ["CCCCC(O)c1ccccc1 (configuration not stated)", "21.1 µM (active)"],
  ["O=C1O[C@H]2[C@H](O)[C@@H]1OC(O)[C@H]2O (some centres not stated)", "13.3 µM (active)"]
]}

Task: Which measured Potency value corresponds to C=CCN1CCCC1CNC(=O)c1cc(S(N)(=O)=O)cc(OC)c1OC (configuration not stated) ?
Result: inactive

Task: Which measured Potency value corresponds to CC1=C(/C=C/C(C)=C/C=C/C(C)=C/C=C/C=C(C)/C=C/C=C(C)/C=C/C2=C(C)C(=O)CCC2(C)C)C(C)(C)CCC1=O ?
Result: 5.31 µM (active)

Task: Which measured Potency value corresponds to c1ccc2cc(C3=NCCN3)ccc2c1 ?
Result: inactive

Task: Which measured Potency value corresponds to CCc1ccc(S(=O)(=O)O)cc1 ?
Result: 0.298 µM (active)

Task: Which measured Potency value corresponds to CC(C(=O)O)c1ccc(N2Cc3ccccc3C2=O)cc1 (configuration not stated) ?
Result: 0.119 µM (active)

Task: Which measured Potency value corresponds to COc1ccc(CCNCC(O)COc2cccc(C)c2)cc1OC (configuration not stated) ?
Result: inactive

###

# testTarget: Nuclear receptor subfamily 1 group I member 2 (Homo sapiens)
# protocolSummary: Human pregnane X receptor (PXR) activation by small molecules, qHTS assay (AID 1346985); also: nearly all actives have a fitted effect of over 40% in size; as to activation: % is scaled to controls: 0 for no effect and ±100 for the full control effect
# experimentalConditions: DPX-2 HepG2 CYP3A4-luciferase, 24 h; series mostly up to 38.3 µM
Inconclusive results are not listed. Activity calls are given as the source filed them. Calls follow the shape of the dose curve; as a rule, active = well fitted activation curve with a large enough effect in the repeat runs; inconclusive = weak or mixed curves; inactive = flat fitted curve, though single readings scatter.
// allowed return values: 1.0 (active), 0.0 (inactive)

Task: What did this assay record as the result for NC(Cc1ccccc1)C(=O)O (stereo not drawn) ?
Result: 0.0

Task: What did this assay record as the result for CC(C)N1CCN(c2ccc(OC[C@H]3CO[C@](Cn4cncn4)(c4ccc(Cl)cc4Cl)O3)cc2)CC1 ?
Result: 1.0

Task: What did this assay record as the result for Cn1c(=O)c2c(ncn2CCOC(=O)C(C)(C)Oc2ccc(Cl)cc2)n(C)c1=O ?
Result: 0.0

Task: What did this assay record as the result for Nc1nc2c(c(=O)[nH]1)N(C=O)C(CNc1ccc(C(=O)N[C@@H](CCC(=O)O)C(=O)O)cc1)CN2 (stereo partly drawn) ?
Result: 0.0

Task: What did this assay record as the result for CO/N=C(\C(=O)N[C@@H]1C(=O)N2C(C(=O)O)=CCS[C@H]12)c1csc(N)n1 ?
Result: 0.0

Task: What did this assay record as the result for C=CC1=C(C)C2=CC3=NC(=C(CC(=O)[O-])C4=NC(=C(C)C4=C([O-])[O-])C=c4[n-]c(c(C)c4CC)=CC1=N2)C(CCC(=O)[O-])C3C.[Cu+2].[Na+].[Na+].[Na+] (stereo not drawn) ?
Result: 0.0

Task: What did this assay record as the result for CC(=O)Nc1ccc(OC(=O)c2ccccc2O)cc1 ?
Result: 0.0

Task: What did this assay record as the result for CC(CCc1ccc(O)cc1)NCC(O)c1ccc(O)cc1 (stereo not drawn) ?
Result: 0.0

Task: What did this assay record as the result for CCCCC(=O)OCC(=O)[C@]1(O)Cc2c(O)c3c(c(O)c2[C@@H](O[C@H]2C[C@H](NC(=O)C(F)(F)F)[C@H](O)[C@H](C)O2)C1)C(=O)c1c(OC)cccc1C3=O ?
Result: 0.0

Task: What did this assay record as the result for O=S(=O)(O)c1cc(O)c2c(N=Nc3ccc(Nc4ccccc4)c4c(S(=O)(=O)O)cccc34)cc(S(=O)(=O)O)cc2c1 ?
Result: 0.0

Task: What did this assay record as the result for CC1(O)CCC(C(C)(C)O)CC1 (stereo not drawn) ?
Result: 0.0

Task: What did this assay record as the result for CNC(=O)[C@H](Cc1c[nH]c2ccccc12)NC(=O)[C@@H](CC(=O)NO)CC(C)C ?
Result: 0.0

###

# protocolSummary: qHTS assay to test for compound auto fluorescence at 590 nm (red) in HepG2 cells (AID 720674); also: % is scaled to controls: 0 for no effect and ±100 for the full control effect
# experimentalConditions: HepG2 autofluorescence, red 540/590 nm, 1 h; series mostly up to 46 µM
Activity calls are given as the source filed them. Calls follow the shape of the dose curve; as a rule, active = well fitted curve in the direction sought with a large enough effect in the repeat runs; inconclusive = weak or mixed curves; inactive = flat fitted curve, though single readings scatter.

{"columns": ["sampleSmiles", "outcome"],
 "data": [
  ["CN1CCN(CCCN2c3ccccc3Sc3ccccc32)CC1", "inactive"],
  ["CCC(=O)OCC(=O)[C@@]1(OC(=O)CC)[C@H](C)C[C@H]2[C@@H]3CCC4=CC(=O)C=C[C@]4(C)[C@@]3(F)[C@@H](O)C[C@@]21C", "inactive"],
  ["COC(=O)[C@H]1[C@H]2C[C@@H]3c4[nH]c5cc(OC)ccc5c4CCN3C[C@H]2C[C@H](OC)[C@@H]1OC", "inactive"]
]}

###

# protocolSummary: qHTS assay for small molecule disruptors of the mitochondrial membrane potential (AID 720635)
# experimentalConditions: HepG2 mitochondrial membrane potential, Mito-MPS dye ratio; series mostly up to 83.2 µM
Inconclusive results are not listed. Activity calls are given as the source filed them. Calls follow the shape of the dose curve; as a rule, active = well fitted inhibition curve with a large enough effect in the signal ratio in the repeat runs; inconclusive = weak or mixed curves, or effect the other way; inactive = flat fitted curve, though single readings scatter; the % refers to the signal ratio.
// allowed return values: label 1 = active, label 0 = inactive

Task: What did this assay record as the result for CS(=O)(=O)OCC(O)C(O)COS(C)(=O)=O (centres undefined) ?
Result: label 0

Task: What did this assay record as the result for CCCC(CCC)C(N)=O ?
Result: label 0

Task: What did this assay record as the result for CC[C@H](C)[C@@H]1NC(=O)[C@H](Cc2ccc(O)cc2)NC(=O)[C@@H](N)CSSC[C@@H](C(=O)N2CCC[C@H]2C(=O)N[C@@H](CC(C)C)C(=O)NCC(N)=O)NC(=O)[C@H](CC(N)=O)NC(=O)[C@H](CCC(N)=O)NC1=O ?
Result: label 0

Task: What did this assay record as the result for COC(=O)[C@H]1[C@H]2C[C@@H]3c4[nH]c5ccccc5c4CCN3C[C@H]2C[C@@H](OC(=O)c2cc(OC)c(OC)c(OC)c2)[C@@H]1OC ?
Result: label 1

Task: What did this assay record as the result for CC[C@@]1(O)C[C@H](O[C@H]2C[C@H](N(C)C)[C@H](O[C@H]3C[C@H](O)[C@H](O[C@H]4CCC(=O)[C@H](C)O4)[C@H](C)O3)[C@H](C)O2)c2c(cc3c(c2O)C(=O)c2c(O)cccc2C3=O)[C@H]1C(=O)OC ?
Result: label 1

Task: What did this assay record as the result for O=C(O)c1ccc(OCCn2ccnc2)cc1 ?
Result: label 0

Task: What did this assay record as the result for Cc1onc(-c2ccccc2)c1C(=O)N[C@@H]1C(=O)N2[C@@H]1SC(C)(C)[C@@H]2C(=O)O ?
Result: label 0

Task: What did this assay record as the result for CN=C1C=CC(=C(c2ccc(N(C)C)cc2)c2ccc(N(C)C)cc2)C=C1 ?
Result: label 1

Task: What did this assay record as the result for O=C(O)C1=C(CSc2nnnn2CS(=O)(=O)O)CS[C@@H]2[C@H](NC(=O)[C@H](O)c3ccccc3)C(=O)N12 ?
Result: label 0

###

# protocolSummary: qHTS assay to test for compound auto fluorescence at 535 nm (green) in HepG2 cell free culture (AID 720686); also: % is scaled to controls: 0 for no effect and ±100 for the full control effect
# experimentalConditions: Cell-free medium, green autofluorescence 485/535 nm; series mostly up to 46 µM
Activity calls are given as the source filed them. Calls follow the shape of the dose curve; as a rule, active = well fitted curve in the direction sought with a large enough effect in the repeat runs; inconclusive = weak or mixed curves; inactive = flat fitted curve, though single readings scatter. Positions of bridges follow the written chain, without caps; N, C: chain ends. Non-standard residues stand in square brackets, D forms with d. Residues, ends and D or L forms follow the SMILES beside them. *: point of attachment. X2 = CC[C@H](C)CCCCC(=O)*; Dab = NCC[C@H](N)C(=O)O
readoutType: outcome

Worked cases, answers included:
{"columns": ["compound", "outcome"],
 "data": [
  ["Nc1nc2[nH]cc(CCc3ccc(C(=O)N[C@@H](CCC(=O)O)C(=O)O)cc3)c2c(=O)[nH]1", "inactive"],
  ["COC(=O)CC[C@H](N)C(=O)O", "inactive"],
  ["COc1ccc(CC2c3cc(OC)c(OC)cc3CC[N+]2(C)CCC(=O)OCCCCCOC(=O)CC[N+]2(C)CCc3cc(OC)c(OC)cc3C2Cc2ccc(OC)c(OC)c2)cc1OC (stereo not given)", "inactive"],
  ["CO[C@H]1C[C@H](O[C@H]2[C@H](C)[C@@H](O[C@@H]3O[C@H](C)C[C@H](N(C)C)[C@H]3OC(C)=O)[C@@H](C)C[C@]3(CO3)C(=O)[C@H](C)[C@@H](OC(C)=O)[C@@H](C)[C@@H](C)OC(=O)[C@@H]2C)O[C@@H](C)[C@@H]1OC(C)=O", "inactive"],
  ["O=P(O)(O)C(O)(Cc1cnc2ccccn12)P(=O)(O)O", "inactive"],
  ["CC[C@H](C)CCCCC(=O)N[C@@H](CCN)C(=O)N[C@H](C(=O)N[C@@H](CCN)C(=O)N[C@H]1CCNC(=O)[C@@H]([C@H](C)O)NC(=O)[C@H](CCN)NC(=O)[C@H](CCN)NC(=O)[C@H](CC(C)C)NC(=O)[C@@H](CC(C)C)NC(=O)[C@H](CCN)NC1=O)[C@@H](C)O (X2-[Dab]T[Dab][Dab][Dab][dL]L[Dab][Dab][dT]; lactam 4-C)", "inactive"]
]}

Task: Which measured outcome value corresponds to OCCN1CCN(CC/C=C2/c3ccccc3Sc3ccc(Cl)cc32)CC1 ?
Result: inactive

Task: Which measured outcome value corresponds to CCOC(=O)[C@H](CCc1ccccc1)N[C@@H](C)C(=O)N1CC2(C[C@H]1C(=O)O)SCCS2 ?
Result: inactive

Task: Which measured outcome value corresponds to COc1cc(/C=C/C(=O)N2CCN(CC(=O)N3CCCC3)CC2)cc(OC)c1OC ?
Result: inactive

Task: Which measured outcome value corresponds to COc1c(O[C@@H]2O[C@H](CO)[C@@H](O)[C@H](O)[C@H]2O)cc2c(c1OC)-c1ccc(SC)c(=O)cc1[C@@H](NC(C)=O)CC2 ?
Result: inactive

Task: Which measured outcome value corresponds to CO[C@H]1O[C@@H]2O[C@@]3(C)CC[C@H]4[C@H](C)CC[C@@H]([C@H]1C)[C@@]24OO3 ?
Result: inactive
